# test.name: Stability assessment / semi-quantitative hygroscopicity in a relative humidity (RH) chamber
# Format: physicochemical
# experimental.conditions: solid in RH chamber; morphology and parent:prodrug composition
readout.label: Stability at 60° C. and 75% RH

Find the recorded Stability at 60° C. and 75% RH belonging to O=C(NCc1ccc[n+](COC(=O)c2ccccc2O)c1)Nc1ccc(OCCc2ccccc2-c2ccccc2)cc1 and report it.
Deliquesced at 4 h

// next record O=C(NCc1ccc[n+](COC(=O)N2CCOCC2)c1)Nc1ccc(OCCc2ccccc2-c2ccccc2)cc1
Deliquesced at 4 h

// next record O=C(NCc1ccc[n+](COC(=O)N2CCCC2)c1)Nc1ccc(OCCc2ccccc2-c2ccccc2)cc1
Deliquesced at 4 h

====

# test.name: Stability assessment / semi-quantitative hygroscopicity in a relative humidity (RH) chamber
# Format: physicochemical
# experimental.conditions: solid in RH chamber; morphology and parent:prodrug composition
readout.label: Stability at 40° C. and 75% RH

Find the recorded Stability at 40° C. and 75% RH belonging to O=C(NCc1ccc[n+](COC(=O)c2ccccc2O)c1)Nc1ccc(OCCc2ccccc2-c2ccccc2)cc1 [Example 55] and report it.
Deliquesced at 4 h

// next record O=C(NCc1ccc[n+](COC(=O)N2CCOCC2)c1)Nc1ccc(OCCc2ccccc2-c2ccccc2)cc1 [Example 60]
Deliquesced at 4 h

====

# test.name: Experiment 2: femoral vein samples of rats after IV Parent Compound A
# Format: in vivo, female Sprague Dawley rats
# experimental.conditions: female, Sprague-Dawley, rat, plasma (femoral vein), iv, 2.5 mg/kg, femoral vein plasma, 2 hr after IV Parent Compound A 2.5 mg/kg; individual rats; read-out: [Par. Cmp. A]
readout.label: concentration at 2 h (ng/mL)
Only the number, expressed in ng/mL, is required.

Find the recorded concentration at 2 h belonging to O=C(NCc1cccnc1)Nc1ccc(OCCc2ccccc2-c2ccccc2)cc1 [Parent Compound A] and report it.
136

====

# test.name: Experiment 2: femoral vein samples of rats after IV Parent Compound A
# Format: in vivo, female Sprague Dawley rats
# experimental.conditions: female, Sprague-Dawley, rat, plasma (femoral vein); Parent Cmpd. A 2.5 mg/kg IV, Femoral Vein; median; read-out: AUC(0-8)
readout.label: AUC(0-t) (ng·h/mL)
Only the number, expressed in ng·h/mL, is required.

Find the recorded AUC(0-t) belonging to O=C(NCc1cccnc1)Nc1ccc(OCCc2ccccc2-c2ccccc2)cc1 and report it.
1460

====

# test.name: Experiment 2: femoral vein samples of rats after IV Parent Compound A
# Type: in vivo, female Sprague Dawley rats
# experimental.conditions: female, Sprague-Dawley, rat, plasma (femoral vein), iv, 2.5 mg/kg, femoral vein plasma, 0.5 hr after IV Parent Compound A 2.5 mg/kg; individual rats; read-out: [Par. Cmp. A]
readout.label: concentration at 0.5 h (ng/mL)
Only the number, expressed in ng/mL, is required.

Find the recorded concentration at 0.5 h belonging to O=C(NCc1cccnc1)Nc1ccc(OCCc2ccccc2-c2ccccc2)cc1 and report it.
568

====

# test.name: Experiment 1: hepatic portal vein samples of rats after oral Example Compound 35
# Assay type: in vivo, female Sprague-Dawley rats
# experimental.conditions: female, Sprague-Dawley, rat, plasma (hepatic portal vein), po, 20 mg/kg, portal vein, 4 hr after oral Example Compound 35 20 mg/kg; individual rats; * = below the quantitation limit of 1 ng/mL; read-out: [Ex. Cmp. 35]
readout.label: concentration at 4 h (ng/mL)
Only the number, expressed in ng/mL, is required.

Find the recorded concentration at 4 h belonging to O=C(NCc1ccc[n+](COC(=O)c2ccccc2)c1)Nc1ccc(OCCc2ccccc2-c2ccccc2)cc1 and report it.
0.13

====

# test.name: Stability assessment / semi-quantitative hygroscopicity in a relative humidity (RH) chamber
# Assay type: physicochemical
# experimental.conditions: solid in RH chamber; morphology and parent:prodrug composition
readout.label: Stability at 60° C. and 75% RH

Find the recorded Stability at 60° C. and 75% RH belonging to COC(=O)CCC(=O)OC[n+]1cccc(CNC(=O)Nc2ccc(OCCc3ccccc3-c3ccccc3)cc2)c1 and report it.
Deliquesced at 4 days

// next record CC(=O)OC(C(C)C)[n+]1cccc(CNC(=O)Nc2ccc(OCCc3ccccc3-c3ccccc3)cc2)c1 (stereo not drawn)
Deliquesced at 4 days

====

# test.name: Stability in mouse liver microsomal preparations
# Assay type: in vitro ADME
# experimental.conditions: liver microsomes, with and without 1 mM NADPH (not said which), read-out: Mouse Liver Microsomes t1/2
readout.label: half-life at 1 µM (h)

1. O=C(NCc1ccc[n+](COC(=O)N2CCC[C@H]2CO)c1)Nc1ccc(OCCc2ccccc2-c2ccccc2)cc1
2. CC(=O)OC(C)[n+]1cccc(CNC(=O)Nc2ccc(OCCc3ccccc3-c3ccccc3)cc2)c1 (stereo not shown)
Response body: label of entry with the larger half-life at 1 µM; valid values 1 , 2 . Refer to your chosen item by its label in the answer.
1

A. CC(=O)OC(C(C)C)[n+]1cccc(CNC(=O)Nc2ccc(OCCc3ccccc3-c3ccccc3)cc2)c1 (stereo not shown)
B. CC(C)C(OC(=O)C(C)(C)C)[n+]1cccc(CNC(=O)Nc2ccc(OCCc3ccccc3-c3ccccc3)cc2)c1 (stereo not shown)
Response body: label of entry with the larger half-life at 1 µM; valid values A , B . Refer to your chosen item by its label in the answer.
B

====

# test.name: Experiment 1: hepatic portal vein samples of rats after oral Example Compound 35
# Format: in vivo, female Sprague-Dawley rats
# experimental.conditions: female, Sprague-Dawley, rat, plasma (hepatic portal vein), po, 20 mg/kg, portal vein, 4 hr after oral Example Compound 35 20 mg/kg; read-out: Median [Par. Cmp. A]
readout.label: concentration at 4 h (ng/mL)
Only the number, expressed in ng/mL, is required.

Find the recorded concentration at 4 h belonging to O=C(NCc1cccnc1)Nc1ccc(OCCc2ccccc2-c2ccccc2)cc1 and report it.
1000

====

# test.name: Experiment 2: femoral vein samples of rats after IV Parent Compound A
# Assay type: in vivo, female Sprague Dawley rats
# experimental.conditions: female, Sprague-Dawley, rat, plasma (femoral vein), iv, 2.5 mg/kg, femoral vein plasma, 1 hr after IV Parent Compound A 2.5 mg/kg; read-out: Median [Par. Cmp. A]
# Procedure: Experiment 2. Three female Sprague Dawley rats (215-250 g, Charles River Laboratories) with a catheter implanted surgically in the femoral vein for blood sampling were used in this study. […] Plasma samples were analyzed for Example Compound 35 or Parent Compound A concentration using a LC-MS/MS method. […] The quantitation range for the Example Compound 35 and Parent Compound A assays was 1 to 100 ng/mL and 5 to 2,500 ng/mL, respectively, using a 0.05 mL sample volume. […]
readout.label: concentration at 1 h (ng/mL)
Only the number, expressed in ng/mL, is required.

Find the recorded concentration at 1 h belonging to O=C(NCc1cccnc1)Nc1ccc(OCCc2ccccc2-c2ccccc2)cc1 [Parent Compound A] and report it.
360

====

# test.name: Experiment 2: femoral vein samples of rats after IV Parent Compound A
# Type: in vivo, female Sprague Dawley rats
# experimental.conditions: female, Sprague-Dawley, rat, plasma (femoral vein); Parent Cmpd. A 2.5 mg/kg IV, Femoral Vein; median
# Description: Experiment 2. Three female Sprague Dawley rats (215-250 g, Charles River Laboratories) with a catheter implanted surgically in the femoral vein for blood sampling were used in this study. […] Plasma samples were analyzed for Example Compound 35 or Parent Compound A concentration using a LC-MS/MS method. […] The quantitation range for the Example Compound 35 and Parent Compound A assays was 1 to 100 ng/mL and 5 to 2,500 ng/mL, respectively, using a 0.05 mL sample volume. […]
readout.label: Tmax (min)
Only the number, expressed in min, is required.

Find the recorded Tmax belonging to O=C(NCc1cccnc1)Nc1ccc(OCCc2ccccc2-c2ccccc2)cc1 [Parent Compound A] and report it.
4.2

====

# test.name: Kinetic solubility (iSol Explorer method)
# Assay type: physicochemical
# experimental.conditions: system solution buffer (pION), aqueous buffer, kinetic from dmso stock, pH 6.8, 15 minutes at room temperature
readout.label: solubility at 15 min (µM)

Find the recorded solubility at 15 min belonging to O=C(NCc1ccc[n+](COC(=O)c2ccccc2)c1)Nc1ccc(OCCc2ccccc2-c2ccccc2)cc1 and report it.
404

// next record CC(=O)OC[n+]1cccc(CNC(=O)Nc2ccc(OCCc3ccccc3-c3ccccc3)cc2)c1
393

// next record CC(C)(C)C(=O)OC[n+]1cccc(CNC(=O)Nc2ccc(OCCc3ccccc3-c3ccccc3)cc2)c1
547

====

# test.name: Experiment 2: femoral vein samples of rats after IV Parent Compound A
# Format: in vivo, female Sprague Dawley rats
# experimental.conditions: female, Sprague-Dawley, rat, plasma (femoral vein), iv, 2.5 mg/kg, femoral vein plasma, 0.083 hr after IV Parent Compound A 2.5 mg/kg; read-out: Median [Par. Cmp. A]
readout.label: concentration at 0.083 h (ng/mL)
Only the number, expressed in ng/mL, is required.

Find the recorded concentration at 0.083 h belonging to O=C(NCc1cccnc1)Nc1ccc(OCCc2ccccc2-c2ccccc2)cc1 and report it.
1920
